# Tested on: BDF1 mice, colon carcinoma 38 sc, T/C %
# measurement.protocol: NCI In Vivo Anticancer Drug Screen. Data for tumor model Colon Carcinoma 38 (subcutaneous) in B6D2F1 (BDF1) mice
# test.parameters: endpoint: median tumor weight (est.); dose: 100.0 mg/kg/injection; schedule: Q07DX002 (ip); vehicle: saline with Tween-80; higher = larger tumour
Inconclusive results are not listed.
Examples of compounds with documented T/C follow.

Below, 5 compounds whose answers are already recorded.
>  <compound>
CCCCCC#CC1OC12CCCCC2 (stereo not given)

>  <T/C>
169 % of control

$$$$
>  <compound>
O=C1NC(=O)/C(=C/C=C/c2ccccc2)S1

>  <T/C>
175 % of control

$$$$
>  <compound>
Nc1cc2c3c(cccc3c1)C(=O)N(CCN1CCCC1)C2=O

>  <T/C>
90 % of control

$$$$
>  <compound>
O=S(=O)(CCl)OCCCl

>  <T/C>
55 % of control

$$$$
>  <compound>
O=C(N[C@H](CO)[C@H](O)c1ccc([N+](=O)[O-])cc1)C(Cl)Cl

>  <T/C>
60 % of control

$$$$

For CCOC(=O)c1[nH]c2cccc3c2c1CC(Br)C3=O (stereo not given) , what is its reported T/C?
90 % of control

For CCCCCC1c2cc(O)ccc2OC1N1CCOCC1 (stereo not given) , what is its reported T/C?
169 % of control

For CCc1nc(N)nc(N)c1-c1ccc(Cl)c([N+](=O)[O-])c1 , what is its reported T/C?
52 % of control

For O=C1NC(O)c2ccccc2O1 (stereo not given) , what is its reported T/C?
75 % of control

For O=C(O)/C=C/C(=O)N1Cc2cc3ccccc3nc2C1 , what is its reported T/C?
173 % of control
